Molecular target: furin, P09958;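 also: purified furin at 1:10 enzyme:substrate in 50 mM HEPES pH 7.5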
Sequence (P09958 whole entry): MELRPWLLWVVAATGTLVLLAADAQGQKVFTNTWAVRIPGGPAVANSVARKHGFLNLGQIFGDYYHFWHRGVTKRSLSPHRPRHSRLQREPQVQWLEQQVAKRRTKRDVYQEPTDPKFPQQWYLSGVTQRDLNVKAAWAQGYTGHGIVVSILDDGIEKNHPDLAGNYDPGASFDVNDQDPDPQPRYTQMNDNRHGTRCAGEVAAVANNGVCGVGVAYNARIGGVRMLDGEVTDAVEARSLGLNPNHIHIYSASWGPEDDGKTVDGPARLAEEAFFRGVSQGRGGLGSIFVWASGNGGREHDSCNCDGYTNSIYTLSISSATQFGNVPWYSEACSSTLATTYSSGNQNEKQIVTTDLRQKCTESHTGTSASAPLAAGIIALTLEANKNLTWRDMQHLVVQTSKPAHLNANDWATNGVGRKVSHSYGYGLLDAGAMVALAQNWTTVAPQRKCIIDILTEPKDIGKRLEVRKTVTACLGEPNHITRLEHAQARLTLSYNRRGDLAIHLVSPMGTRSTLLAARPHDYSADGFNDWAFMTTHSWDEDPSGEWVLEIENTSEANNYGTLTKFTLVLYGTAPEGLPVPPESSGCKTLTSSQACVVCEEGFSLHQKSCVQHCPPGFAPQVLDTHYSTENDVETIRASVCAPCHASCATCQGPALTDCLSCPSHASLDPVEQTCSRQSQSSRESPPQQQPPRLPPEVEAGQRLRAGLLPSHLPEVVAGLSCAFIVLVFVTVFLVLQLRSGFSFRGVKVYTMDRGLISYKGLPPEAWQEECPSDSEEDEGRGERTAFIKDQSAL
Experiment: furin cleavage Z-score vs untreated control; higher = more cleavage, active = 3.5 or more, inactive = 1 or less, 8 variable residues between constant flanks
Conditions: 30 min
This is one part of the list. No count for the full screen is at hand.
Just give me one of these, please: TRUE (active), FALSE (inactive)

Recorded results for 5 sequences are shown here.
{"seqString": "CASTGRVGRSAGNASASA [FS-1168]", "qualitativeLabel": "TRUE"}
{"seqString": "CAEVRCHRPSAGNASASA [HC2353]", "qualitativeLabel": "FALSE"}
{"seqString": "CAREKKDVPLAGNASASA [FS-3187]", "qualitativeLabel": "FALSE"}
{"seqString": "CAITGHRMAWAGNASASA [HC317]", "qualitativeLabel": "FALSE"}
{"seqString": "CAEVRRVGRSAGNASASA [FS-766]", "qualitativeLabel": "TRUE"}

Next item in the queue.
Exam item: // outcome(item) with item = CARTRKFVVDAGNASASA [FS-2315]
Marked response: FALSE
